Parameter: Concentration of FLNA-Binding Compound as Agonist 1 μM. Scope: all listed entries.
Biological target: mu opiate receptor (MOR) (Rattus norvegicus)
Construct: from tissue; host or cells: striatum (membrane preparation)
Type: biochemical
Settings: [35S]GTPγS binding to Gαo in striatal membranes; compound 1 μM
The number alone won't do; follow it with the unit.

Solved entries (count: 5):
compound: COc1ccccc1S(=O)(=O)N1CCC2(CC1)OCCN2S(=O)(=O)c1ccccc1OC
assayed-target: mu opiate receptor (MOR) (Rattus norvegicus)
obs-value: 215.9%

compound: COc1ccc(CCC(=O)CC2c3c(cc4c(c3OC)OCO4)CCN2C)cc1 (centres unmarked)
assayed-target: mu opiate receptor (MOR) (Rattus norvegicus)
obs-value: 235.6%

compound: CC1CCC(C(C)C)C(OCC(O)CN2CCCN(C)CC2)C1 (centres unmarked)
assayed-target: mu opiate receptor (MOR) (Rattus norvegicus)
obs-value: 319.0%

compound: COc1cccc(S(=O)(=O)N2CCC3(CC2)OCCN3S(=O)(=O)c2cccc(OC)c2)c1
assayed-target: mu opiate receptor (MOR) (Rattus norvegicus)
obs-value: 93.8%

compound: CC1CCCC(OCC(O)CN2CC(C)OC(C)C2)C1 (centres unmarked)
assayed-target: mu opiate receptor (MOR) (Rattus norvegicus)
obs-value: 275.3%

Lookup: If you can, please state the reported Concentration of FLNA-Binding Compound as Agonist 1 μM value of COc1ccccc1CC(O)CC1c2c(cc3c(c2OC)OCO3)CC[N+]1(C)C (centres unmarked) .
Found: 297.7%

Lookup: Item `O=S(=O)(c1ccc(-c2ccccc2)cc1)N1CCC2(CC1)OCCN2S(=O)(=O)c1ccc(-c2ccccc2)cc1` has what recorded Concentration of FLNA-Binding Compound as Agonist 1 μM?
Found: 307.0%

Lookup: Query: Concentration of FLNA-Binding Compound as Agonist 1 μM; subject: CC1CCC(C(C)C)C(OCC(O)CN2CCCCC2=O)C1 (centres unmarked)
Found: 167.5%

* * *

Molecular target: mu opiate receptor (MOR) (Rattus norvegicus, UniProt P33535)
Construct: from tissue; host or cells: striatum (membrane preparation)
Sequence (P33535 whole entry): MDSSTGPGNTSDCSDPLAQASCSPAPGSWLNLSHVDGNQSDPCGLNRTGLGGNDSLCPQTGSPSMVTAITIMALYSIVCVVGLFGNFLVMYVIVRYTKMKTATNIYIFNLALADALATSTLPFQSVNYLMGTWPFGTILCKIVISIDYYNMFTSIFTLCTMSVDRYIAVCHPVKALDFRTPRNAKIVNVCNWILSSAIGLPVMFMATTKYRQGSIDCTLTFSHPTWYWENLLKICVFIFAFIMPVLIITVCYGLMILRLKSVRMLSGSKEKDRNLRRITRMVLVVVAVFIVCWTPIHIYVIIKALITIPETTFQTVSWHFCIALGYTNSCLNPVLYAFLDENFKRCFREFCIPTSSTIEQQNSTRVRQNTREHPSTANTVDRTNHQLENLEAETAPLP
Type: biochemical
attribute-measured: % DAMGO + BFNA (%)
All answers are understood in %, so give the number only.

Previously resolved entries follow.
compound: COc1c2c(cc3c1C(CC(=O)c1ccc(N4CCOCC4)cc1)[N+](C)(C)CC3)OCO2 (centres unmarked)
% DAMGO + BFNA (%): 110.8

compound: COc1ccc(S(=O)(=O)N2CCOC23CCN(S(=O)(=O)c2ccc(C(C)=O)cc2)CC3)cc1
% DAMGO + BFNA (%): 182.0

Lookup: Quick one: % DAMGO + BFNA of CC1CCN(CC(O)COC2CC(C)CCC2C(C)C)CC1 (centres unmarked) ?
Found: 68.7

Lookup: Look at this compound and give its reported % DAMGO + BFNA. COc1c2c(cc3c1C(CC(=O)c1cccc(C(F)(F)F)c1)[N+](C)(C)CC3)OCO2 (centres unmarked)
Found: 29.0

Lookup: Report % DAMGO + BFNA for CC1CN(CC(O)COc2ccc(Cl)cc2)CC(C)O1 (centres unmarked) please.
Found: 157.6

Lookup: # % DAMGO + BFNA lookup, item `CC(=O)c1ccc(S(=O)(=O)N2CCC3(CC2)OCCN3S(C)(=O)=O)cc1`
Found: 196.1

Lookup: Consider the compound O=C(c1ccc([N+](=O)[O-])cc1)N1CCC2(CC1)OCCN2S(=O)(=O)c1ccc([N+](=O)[O-])cc1 [Compound C0022] and give its measured % DAMGO + BFNA.
Found: 25.7

Lookup: Item CC(=O)c1ccc(S(=O)(=O)N2CCC3(CC2)OCC(CCCCN(C)C)N3S(=O)(=O)c2ccc(C(C)=O)cc2)cc1 (centres unmarked) [Compound C0080M] has what recorded % DAMGO + BFNA?
Found: 351.8

* * *

Target: mu opiate receptor (MOR) (Rattus norvegicus, UniProt P33535)
Construct: from tissue; host or cells: striatum (membrane preparation)
Format: biochemical
Details: [35S]GTPγS binding to Gαo in striatal membranes; compound 0.1 μM
Concentration of FLNA-Binding Compound as Agonist 0.1 μM overview
Quick reminder: number only, in %, skip the unit.

compound: COc1c2c(cc3c1C(CC(=O)c1ccncc1)[N+](C)(C)CC3)OCO2 (centres unmarked)
obs-value: 89.2
//
compound: COc1c2c(cc3c1C(CC(=O)c1ccc(F)c(F)c1)[N+](C)(C)CC3)OCO2 (centres unmarked)
obs-value: 103.0
//
compound: OC(COc1cccc(C(F)(F)F)c1)CN1CCc2ccccc2C1 (centres unmarked)
obs-value: 74.9
//
compound: CC1CCC(C(C)C)C(OCC(O)CN2CCC2)C1 (centres unmarked)
obs-value: 110.9

Next compound, Concentration of FLNA-Binding Compound as Agonist 0.1 μM to be filled in.
Lookup: # input compound: COc1c2c(cc3c1C(CC(=O)CCc1ccc(F)cc1)[N+](C)(C)CC3)OCO2 (centres unmarked) ; wanted: its Concentration of FLNA-Binding Compound as Agonist 0.1 μM
Found: 118.8

* * *

Catalogue of molecules with associated Concentration of FLNA-Binding Compound as Agonist 0.1 μM
Target: mu opiate receptor (MOR) (Rattus norvegicus)
Construct: from tissue; host or cells: striatum (membrane preparation)
Assay type: biochemical
Details: [35S]GTPγS binding to Gαo in striatal membranes; compound 0.1 μM
Just the number in %, nothing appended.

molecule: CC1CCC(C(C)C)C(OCC(O)CN2CCSC2)C1 (centres unmarked)
unit-annotation: %
obs-value: 155.6
--
molecule: O=S(=O)(c1ccc(C(F)(F)F)cc1Br)N1CCC2(CC1)OCCN2S(=O)(=O)c1ccc(C(F)(F)F)cc1Br
unit-annotation: %
obs-value: 276.3

Lookup: Given the molecule COc1ccc(CCC(O)CC2c3c(cc4c(c3OC)OCO4)CCN2C)cc1 (centres unmarked) , what is its reported Concentration of FLNA-Binding Compound as Agonist 0.1 μM?
Found: 185.1

Lookup: Would you kindly share the measured Concentration of FLNA-Binding Compound as Agonist 0.1 μM for CC(=O)c1ccc(S(=O)(=O)N2CCC3(CC2)OC(CN(C)C)CN3S(=O)(=O)c2ccc(C(C)=O)cc2)cc1 (centres unmarked) ?
Found: 198.3

Lookup: Please look up its Concentration of FLNA-Binding Compound as Agonist 0.1 μM: COc1ccc(C(=O)CC2c3c(cc4c(c3OC)OCO4)CC[N+]2(C)C)cc1OC (centres unmarked)
Found: 152.0

Lookup: Please report the recorded Concentration of FLNA-Binding Compound as Agonist 0.1 μM for `O=S(=O)(c1ccc(Br)c(C(F)(F)F)c1)N1CCC2(CC1)OCCN2S(=O)(=O)c1ccc(Br)c(C(F)(F)F)c1` .
Found: 192.7

Lookup: Entry under review: COc1ccc(N2CCN(CC(O)COC3CC(C)CCC3C(C)C)CC2)c(OC)c1 (centres unmarked) . Reported Concentration of FLNA-Binding Compound as Agonist 0.1 μM?
Found: 149.3

Lookup: Param item = COc1ccc(CCC(=O)CC2c3c(cc4c(c3OC)OCO4)CC[N+]2(C)C)c(OC)c1 (centres unmarked) ; retrieve measured Concentration of FLNA-Binding Compound as Agonist 0.1 μM.
Found: 74.8

Lookup: Please look up its Concentration of FLNA-Binding Compound as Agonist 0.1 μM: COc1c2c(cc3c1C(CC(=O)Cc1ccc(C#N)cc1)[N+](C)(C)CC3)OCO2 (centres unmarked)
Found: 167.4

Lookup: Would you kindly share the measured Concentration of FLNA-Binding Compound as Agonist 0.1 μM for `O=S(=O)(c1cccc(OC(F)(F)F)c1)N1CCC2(CC1)OCCN2S(=O)(=O)c1cccc(OC(F)(F)F)c1` ?
Found: 180.4

Lookup: So what does the record say about Concentration of FLNA-Binding Compound as Agonist 0.1 μM for O=C1CN(Cc2ccccc2)C2(CCN(S(=O)(=O)c3cc(Cl)c(O)c(Cl)c3)CC2)N1 [Compound C0139M] ?
Found: 156.1

Lookup: For COc1c2c(cc3c1C(CC(O)CCc1ccccc1)N(C)CC3)OCO2 (centres unmarked) , what is its reported Concentration of FLNA-Binding Compound as Agonist 0.1 μM?
Found: 115.6

Lookup: Entry under review: COc1c2c(cc3c1C(CC(=O)c1cccc(C(F)(F)F)c1)[N+](C)(C)CC3)OCO2 (centres unmarked) . Reported Concentration of FLNA-Binding Compound as Agonist 0.1 μM?
Found: 77.0

Lookup: // Concentration of FLNA-Binding Compound as Agonist 0.1 μM lookup, key: `COc1cccc(S(=O)(=O)N2CCC3(CC2)OCCN3S(=O)(=O)c2cccc(OC)c2)c1`
Found: 88.4

Lookup: Look up Concentration of FLNA-Binding Compound as Agonist 0.1 μM for this molecule: CC1CCC(C(C)C)C(OCC(O)CN2CCCCC2=O)C1 (centres unmarked)
Found: 144.1

Lookup: Recorded Concentration of FLNA-Binding Compound as Agonist 0.1 μM for `O=S(=O)(c1ccccc1)N1CCC2(CC1)OCCN2S(=O)(=O)c1ccccc1` , please?
Found: 172.7

Lookup: For the molecule shown here, `CC(=O)Nc1ccc(S(=O)(=O)N2CCC3(CC2)OCCN3S(=O)(=O)c2ccc(NC(C)=O)cc2)cc1` , give the reported Concentration of FLNA-Binding Compound as Agonist 0.1 μM.
Found: 156.6

Lookup: Entry under review: COc1c2c(cc3c1C(CC(=O)/C=C/c1ccc(Cl)cc1)[N+](C)(C)CC3)OCO2 (centres unmarked) . Reported Concentration of FLNA-Binding Compound as Agonist 0.1 μM?
Found: 101.0

Lookup: Consider the molecule shown here: O=C(c1ccc([N+](=O)[O-])cc1)N1CCC2(CC1)OCCN2S(=O)(=O)c1ccc([N+](=O)[O-])cc1 [Compound C0033] What is its recorded Concentration of FLNA-Binding Compound as Agonist 0.1 μM?
Found: 134.5
